The entries below are paired with their reported IC50.
assay-target: MMP-13 (Homo sapiens, UniProt P45452)
Construct: catalytic domain (^104Tyr˜^267Gly) was amplified with RT-PCR; His-tag; enterokinase digestion-site; made in house
method-summary: Assay for inhibitory activities on MMP-13
Format: biochemical
run-parameters: catalytic domain, substrate MOCAc-Pro-Leu-Gly-Leu-A2Pr(DNP)-Ala-Arg-NH2; read-out: MMP-13 (IC50μM)
Protocol: In regard to MMP-13, mRNA was prepared from carcinoma cell SW1353 derived from human cartilage stimulate by IL-1, TNF and catalytic domain (^[…]) was amplified with RT-PCR. This was cloned in Escherichia. coli expression vector […] inserted with His-tag sequence and enterokinase digestion-site, induced and expressed by IPTG (Isopropyl-β-D-thiogalactopyranoside) and expressed in a insoluble fraction. […] The enzymatic activity on MMP was analyzed by the method described in “C. […]
Dear colleague, please return just the value in µM, with no unit written.

compound="Cc1ccc(-c2ccc(-c3ccc(S(=O)(=O)NCC(=O)O)s3)s2)cc1 [Compound L-4]" assay_target="MMP-13 (Homo sapiens, UniProt P45452)" measurement=0.281

Qu. Provide IC50 value for the following compound: CSc1ccc(-c2ccc(S(=O)(=O)NC(Cc3ccccc3)C(=O)O)cc2)cc1 (centres unmarked) [Compound E-30]
Ans. 0.0026

Qu. Provide IC50 value for the following compound: CC(C)(C)c1ccc(-c2ccc(S(=O)(=O)NC(Cc3ccccc3)C(=O)O)cc2)cc1 (centres unmarked) [Compound E-25]
Ans. 0.39

Qu. Provide IC50 value for the following compound: CC(C)c1ccc(-c2nc(-c3ccc(S(=O)(=O)N[C@@H](C(=O)O)C(C)C)cc3)no2)cc1 [Compound C-4]
Ans. 0.0057

====

assay-target: MMP-13 (Homo sapiens)
Construct: catalytic domain (^104Tyr˜^267Gly) was amplified with RT-PCR; His-tag; enterokinase digestion-site; made in house
method-summary: Assay for inhibitory activities on MMP-13
Format: biochemical
run-parameters: catalytic domain, substrate MOCAc-Pro-Leu-Gly-Leu-A2Pr(DNP)-Ala-Arg-NH2; read-out: MMP-13 (IC50μM)
measured-endpoint: IC50 (µM)
Dear colleague, please return just the value in µM, with no unit written.

line_notation=CN(C)c1ccc(-c2ccc(S(=O)(=O)N[C@H]3CCC[C@@H]3C(=O)O)s2)cc1 measured_endpoint=IC50 measurement=0.353
line_notation=Cc1ccc(-c2ccc(-c3ccc(S(=O)(=O)N[C@@H](C(=O)O)C(C)C)s3)s2)cc1 measured_endpoint=IC50 measurement=0.031
line_notation=Cc1ccc(-c2ccc(S(=O)(=O)N[C@H](Cc3c[nH]c4ccccc34)C(=O)O)cc2)cc1 measured_endpoint=IC50 measurement=0.00877
line_notation=CSc1ccc(-c2cnc(-c3ccc(S(=O)(=O)N[C@H](C(=O)O)C(C)C)cc3)s2)cc1 measured_endpoint=IC50 measurement=0.00045

Qu. Provide IC50 value for the following compound: `COc1ccc(-c2cnc(-c3ccc(S(=O)(=O)N[C@H](CCC(=O)O)C(=O)O)cc3)o2)cc1`
Ans. 0.0199

Qu. Provide IC50 value for the following compound: `CC(C)c1ccc(-c2nc(-c3ccc(S(=O)(=O)N[C@H](C)C(=O)O)cc3)no2)cc1`
Ans. 0.0113

====

assay-target: MMP-13 (Homo sapiens)
Construct: catalytic domain (^104Tyr˜^267Gly) was amplified with RT-PCR; His-tag; enterokinase digestion-site; made in house
method-summary: Assay for inhibitory activities on MMP-13
Type: biochemical
run-parameters: catalytic domain, substrate MOCAc-Pro-Leu-Gly-Leu-A2Pr(DNP)-Ala-Arg-NH2; read-out: MMP-13 (IC50μM)
measured-endpoint: pIC50
# log scale: pIC50 equals minus log10 of the concentration in mol/L

Qu. Provide pIC50 value for the following molecule: Cc1ccc(-c2ccc(-c3ccc(S(=O)(=O)N[C@H](C(=O)O)C(C)C)s3)s2)cc1 [Compound L-5]
Ans. 6.87

Qu. Provide pIC50 value for the following molecule: CSCC[C@@H](NS(=O)(=O)c1ccc(-c2ncc(-c3ccc4c(c3)OCO4)s2)cc1)C(=O)O [Compound A-19]
Ans. 8.04

Qu. Provide pIC50 value for the following molecule: CC(=O)NCCc1ccc(-n2nnc(-c3ccc(S(=O)(=O)N[C@H](Cc4ccccc4)C(=O)O)cc3)n2)cc1 [Compound I-2]
Ans. 8.00

Qu. Provide pIC50 value for the following molecule: CNc1ccc(-c2ccc(S(=O)(=O)N[C@@H](Cc3ccccc3)C(=O)O)s2)cc1 [Compound F-22]
Ans. 6.07
